- Measurement target: thrombin (Homo sapiens, UniProt P00734)
- Assay method text: Effect of test compounds on thrombin activity: hydrolysis rate of chromogenic (Chromozim TH) or fluorogenic (BOC-Ala-Pro-Arg-AMC) substrate
- Format: biochemical
- Assay conditions: concentration of compound 100 mcM
Reported Hydrolysis rate inhibition, % values follow for various compounds
Please respond with the number in % and leave the unit unwritten.

Solved entries:
{"Compound": "Cc1cc(OCCCSC(=N)N)cc(OS(=O)(=O)c2ccccc2)c1.I [HC-018s-IOC]", "Hydrolysis rate inhibition, % / %": 100}
{"Compound": "CN(c1ccccc1)S(=O)(=O)c1ccc2c(c1)nc(CC[n+]1ccc(N)cc1)n2C.[Cl-] [HC_027s_IOC]", "Hydrolysis rate inhibition, % / %": 100}
{"Compound": "Cc1cc(OCCCn2ccsc2=N)cc(OS(=O)(=O)c2ccccc2)c1", "Hydrolysis rate inhibition, % / %": 96}

Here is another compound to look at.
For CN(C)c1cc[n+](CCc2nc3cc(S(=O)(=O)N(C)c4ccccc4)ccc3n2C)cc1.[Cl-] [HC-021s-IOC] on thrombin (Homo sapiens, UniProt P00734), measured Hydrolysis rate inhibition, % was 8

* * *

Reported Hydrolysis rate inhibition, % values follow for various compounds
- Measurement target: thrombin (Homo sapiens)
- Assay method text: Effect of test compounds on thrombin activity: hydrolysis rate of chromogenic (Chromozim TH) or fluorogenic (BOC-Ala-Pro-Arg-AMC) substrate
- Format: biochemical
- Assay conditions: concentration of compound 25 mcM
Hi! Could you send only the number? It should be in %, unit omitted.

Record excerpt, results attached:
{"Compound": "Nc1cc[n+](CCOc2cccc(NS(=O)(=O)c3ccccc3)c2)cc1", "Hydrolysis rate inhibition, %, %": 95}
{"Compound": "CNc1ccc(S(=O)(=O)N(C)c2ccccc2)cc1NC(=O)CC[n+]1ccc(N)cc1.[Cl-]", "Hydrolysis rate inhibition, %, %": 95}
{"Compound": "CNc1ccc(S(=O)(=O)N(C)c2ccccc2)cc1NC(=O)CC[n+]1ccc(N(C)C)cc1.[Cl-] [HC-022s-IOC]", "Hydrolysis rate inhibition, %, %": 34}

The compound listed as CN(C)c1cc[n+](CCc2nc3cc(S(=O)(=O)N(C)c4ccccc4)ccc3n2C)cc1.[Cl-] [HC-021s-IOC] shows Hydrolysis rate inhibition, % equal to 5

get_value(item= CN(c1ccccc1)S(=O)(=O)c1ccc2c(c1)nc(CC[n+]1ccc(N)cc1)n2C.[Cl-] , readout=Hydrolysis rate inhibition, %) returns 72

* * *

- Measurement target: thrombin (Homo sapiens)
- Assay method text: Effect of test compounds on thrombin activity: hydrolysis rate of chromogenic (Chromozim TH) or fluorogenic (BOC-Ala-Pro-Arg-AMC) substrate
- Type: biochemical
- Assay conditions: concentration of compound 50 mcM
Readout name: Hydrolysis rate inhibition, % (%)
Supply the numeric figure in %, leaving out any unit text.

# example entries with known answers
{"Compound": "CN(c1ccccc1)S(=O)(=O)c1ccc2c(c1)nc(CC[n+]1ccc(N)cc1)n2C.[Cl-] [HC_027s_IOC]", "Readout name": "Hydrolysis rate inhibition, %", "Value reported": 88}
{"Compound": "Cc1cc(OCCCn2ccsc2=N)cc(OS(=O)(=O)c2ccccc2)c1", "Readout name": "Hydrolysis rate inhibition, %", "Value reported": 95}
{"Compound": "CNc1ccc(S(=O)(=O)N(C)c2ccccc2)cc1NC(=O)CC[n+]1ccc(N(C)C)cc1.[Cl-] [HC-022s-IOC]", "Readout name": "Hydrolysis rate inhibition, %", "Value reported": 40}
{"Compound": "CNc1ccc(S(=O)(=O)N(C)c2ccccc2)cc1NC(=O)CC[n+]1ccc(N)cc1.[Cl-] [HC_028s_IOC]", "Readout name": "Hydrolysis rate inhibition, %", "Value reported": 95}

Now consider the entry below.
Case Cc1cc(OCCCSC(=N)N)cc(OS(=O)(=O)c2ccccc2)c1.I [HC-018s-IOC] , thrombin (Homo sapiens), Hydrolysis rate inhibition, % recorded as 100

Sourced from patent US20100324058A1
